The following molecules are shown together with reported LDH values.
system: Human neuroblastomas SH-SY5Y cell line; test: Lactate dehydrogenase (LDH) activity / toxicity in neurons; assay type: cell-based; conditions: human, 24 h, 100 nM
Note: unit % is implicit; provide only the numeric part.

Record excerpt, results attached:
1. O=C(O)Cn1c(C(=O)O)cc2ccc3ccccc3c21 :: 3
2. O=P(O)(O)C(O)(Cn1ccnc1)P(=O)(O)O :: 60

# input Hi! What's the reported LDH for O=P(O)(O)CNc1ncnc2sc(-c3ccc(C4CC4)cc3)cc12 on Human neuroblastomas SH-SY5Y cell line?
# output 7

# input Hi! What's the reported LDH for O=P(O)(O)C(Nc1ncnc2sc(-c3ccc(OC4CC4)cc3)cc12)P(=O)(O)O on Human neuroblastomas SH-SY5Y cell line?
# output 0

----------
The following molecules are shown together with reported pIC50 values.
molecular target: human recombinant FPPS (Homo sapiens, UniProt P14324)
Sequence (P14324 whole entry): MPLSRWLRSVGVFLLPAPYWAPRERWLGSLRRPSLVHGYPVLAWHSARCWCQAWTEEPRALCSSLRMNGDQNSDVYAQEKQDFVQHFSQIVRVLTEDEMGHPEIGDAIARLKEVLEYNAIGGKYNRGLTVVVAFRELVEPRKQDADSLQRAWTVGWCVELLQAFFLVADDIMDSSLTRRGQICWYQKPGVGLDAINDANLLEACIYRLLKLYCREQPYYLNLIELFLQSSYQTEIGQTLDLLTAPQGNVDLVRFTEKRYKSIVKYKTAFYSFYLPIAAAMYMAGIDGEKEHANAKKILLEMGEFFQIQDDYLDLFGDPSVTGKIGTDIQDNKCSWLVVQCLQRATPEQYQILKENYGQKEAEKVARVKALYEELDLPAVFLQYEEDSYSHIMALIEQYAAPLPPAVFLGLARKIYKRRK
Answer as the number alone; pIC50 is minus log10 of concentration in mol/L.

1) Cc1ccc(-c2sc3ncnc(NCP(=O)(O)O)c3c2N)cc1Cl :: 5.00
2) Cc1ccc(-c2cc3c(N[C@H](Cc4ccccc4)C(=O)O)ncnc3s2)cc1 :: 4.40
3) Cc1ccc(-c2cc3c(NC(c4ccccc4)P(=O)(O)O)ncnc3s2)cc1 (stereo not shown) :: 5.38

# input Hi! What's the reported pIC50 for Cc1ccc(-c2sc3ncnc(NCP(=O)(O)O)c3c2N)cc1 on human recombinant FPPS (Homo sapiens, UniProt P14324)?
# output 5.57

# input Hi! What's the reported pIC50 for O=P(O)(O)CNc1ncnc2sc(-c3ccc(C4CC4)cc3)cc12 on human recombinant FPPS (Homo sapiens, UniProt P14324)?
# output 4.54

# input Hi! What's the reported pIC50 for Cc1ccc(-c2cc3c(NC(c4ccccc4)P(=O)(O)O)ncnc3s2)cc1Cl (stereo not shown) on human recombinant FPPS (Homo sapiens, UniProt P14324)?
# output 5.89

# input Hi! What's the reported pIC50 for O=P(O)(O)C(Nc1ncnc2sc(-c3ccc(C4CC4)cc3)cc12)P(=O)(O)O on human recombinant FPPS (Homo sapiens, UniProt P14324)?
# output 7.44
